| MOLECULE | melting point |
| --- | --- |
| COS(=O)(=O)CCCCCCCc1ccc(OCc2ccccc2)cc1 | 57 to 59 °C |
| O=C(CCCCCCOc1ccc(OCc2ccccc2)cc1)C(F)(F)F | 82 to 83 °C |
| Oc1cccc(OCCCC(O)(O)C(F)(F)F)c1 (hydrate or solvate) | 76 to 77 °C |
| Cc1nnc(C(=O)CCCCCCOc2ccc(OCc3ccccc3)cc2)o1 | 118 to 120 °C |
| Cc1nnc(C(=O)CCCCCCOc2ccc(O)cc2)o1 | 134 to 135 °C |
| O=C(CCCOc1ccc(OCc2ccccc2)cc1)C(F)(F)F | 59 to 61 °C |
| O=C(CCCCCOc1ccccc1OCc1ccccc1)C(F)(F)F | 31 to 32 °C |
| O=C(CCCCOc1ccc(OCc2ccccc2)cc1)C(F)(F)F | 95.5 to 96 °C |
| O=C(CCCCOc1ccccc1O)C(F)(F)F | 51 to 52 °C |
| O=C(CCCOc1ccccc1OCc1ccccc1)C(F)(F)F | 50 to 51 °C |
| O=S(=O)(F)CCCCCc1ccc(OCc2ccccc2)cc1 | 66 to 68 °C |
| O=C(CCCCCOc1ccc(OCc2ccccc2)cc1)C(F)(F)F | 59 to 60 °C |
| O=C(CCCCOc1ccc(O)cc1)C(F)(F)F | 63 to 64 °C |
| O=S(=O)(F)CCCCCCCc1ccc(O)cc1 | 47 to 51 °C |
| O=C(CCCCOc1ccccc1)C(F)(F)F | 50 to 51 °C |
| O=S(=O)(F)CCCCOc1ccccc1 [Compound 17, 4-Phenoxybutylsulfonyl fluoride] | 74 to 76 °C |
| O=S(=O)(F)CCCCCCCc1ccc(OCc2ccccc2)cc1 | 35 to 38 °C |
| O=C(CCCCCCOc1ccc(O)cc1)C(F)(F)F | 61 to 62 °C |
